Target: MASP-2 CCP2-SP (Homo sapiens (Human))
Sequence (O00187 445-686): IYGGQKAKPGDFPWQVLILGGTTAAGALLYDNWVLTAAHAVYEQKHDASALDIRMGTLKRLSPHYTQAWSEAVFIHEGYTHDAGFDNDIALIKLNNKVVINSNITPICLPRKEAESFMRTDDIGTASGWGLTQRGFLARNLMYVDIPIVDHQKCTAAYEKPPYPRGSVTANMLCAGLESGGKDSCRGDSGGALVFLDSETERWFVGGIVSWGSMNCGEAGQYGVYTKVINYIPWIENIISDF
Sequence (O00187 364-432 partner): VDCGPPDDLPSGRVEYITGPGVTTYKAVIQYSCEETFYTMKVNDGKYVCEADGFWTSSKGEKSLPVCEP
Experiment: MASP-2 co-crystallization, X-ray crystallography and structure analysis (H-bonds, van der Waals contacts)
Set-up: unit not given beside the values
Conditions: Table A5-1 pharmacophore: distance between elements, S2/S1 region
Excerpt: This example illustrates the preparation of recombinant MASP-2 protein, based on UniProt O00187, human mannan-binding lectin serine protease 2. Expression constructs for human MASP-2 CCP2-SP and CCP2-SP-6HIS were generated for recombinant expression in E. coli cells. […]
Where a name gives a salt, the structure may show the parent alone.
Would you mind sorting the entries by d(CA1,O2) according to these classes? low-valued: < 4; mid-valued: ≥ 4 and < 5; high-valued: ≥ 5

Req: Please report the category associated with Cc1nc(N)ccc1CNC(=O)[C@H](C)NC(=O)c1cc(Cc2ccccc2)n[nH]1 , nothing else.
Resp: high-valued

Req: Also C[C@H](NC(=O)[C@H](N)CCc1ccccc1)C(=O)NCc1ccc(N)nc1.Cl.Cl [1007_1] ?
Resp: low-valued

Req: Also C[C@H](NC(=O)[C@H]1C[C@@H](c2ccccc2)CCN1)C(=O)NCc1cc(Cl)ccc1O.Cl [1078_7] ?
Resp: mid-valued

Req: Also C[C@H](NC(=O)[C@H]1C[C@@H](c2ccccc2)CCN1)C(=O)NCc1cc(Cl)ccc1O.Cl [1078_13] ?
Resp: mid-valued

Req: Also C[C@H](NC(=O)[C@H]1C[C@H](Cc2ccccc2)CN1)C(=O)NCc1ccc(C(=N)N)cc1.Cl.Cl [1306_1] ?
Resp: mid-valued

Req: Also C[C@H](NC(=O)[C@@H](CCc1ccccc1)NCc1ccc(N2CCOCC2)cc1)C(=O)NCc1ccc(C(=N)N)cc1 ?
Resp: high-valued

Req: Also Cc1nc(N)ccc1CNC(=O)[C@H](C)NC(=O)[C@H]1C[C@H](Cc2cccc(Cl)c2)CN1.Cl.Cl [1328_1] ?
Resp: low-valued

Req: Also C[C@H](NC(=O)[C@H]1C[C@H](Cc2ccccc2)CN1)C(=O)NCc1cnc2[nH]cc(Cl)c2c1 ?
Resp: mid-valued

Req: Also Cc1nc(N)ccc1CNC(=O)[C@H](C)NC(=O)[C@H]1C[C@H](Cc2cccc(Cl)c2)CN1.Cl.Cl [1328_4] ?
Resp: low-valued

Req: Also C[C@H](NC(=O)[C@H]1C[C@@H](c2ccccc2)CCN1)C(=O)NCc1cnc2[nH]cc(Cl)c2c1 ?
Resp: mid-valued

Req: Also CNC(=O)c1ccc2c(=O)n(Cc3ccccc3)c(=O)n(CC(=O)NCc3ccc(C(=N)N)cc3)c2c1 ?
Resp: high-valued

Req: Also Cc1nc(N)ccc1CNC(=O)[C@H](C)NC(=O)[C@H]1C[C@H](Cc2cc(Cl)cc(Cl)c2)CN1 [compound 1435, Dihydrochloride] ?
Resp: low-valued

Req: Also Cc1nc(N)ccc1CNC(=O)[C@H](C)NC(=O)[C@H]1C[C@@H](c2cccc3ccccc23)CCN1.Cl.Cl [1297_5] ?
Resp: low-valued

Req: Also C[C@H](NC(=O)[C@H]1C[C@@H](c2ccccc2)CCN1)C(=O)NCc1cc(Cl)ccc1O.Cl [1078_11] ?
Resp: mid-valued

----------
Target: MASP-2 CCP2-SP (Homo sapiens (Human))
Assay: MASP-2 co-crystallization, X-ray crystallography and structure analysis (H-bonds, van der Waals contacts)
Conditions: Table A6-1 pharmacophore angle
Where a name gives a salt, the structure may show the parent alone.
Exercise: state measured a(O1, O2, H4) for each of the compounds provided.
Keep the answer to the number alone.

Req: I'd like to know its a(O1, O2, H4). The compound in question is C[C@H](NC(=O)[C@H]1C[C@@H](c2ccccc2)CCN1)C(=O)NCc1cc(Cl)ccc1O.Cl [1078_13]
Resp: 123.59

Req: Also C[C@H](NC(=O)[C@H]1C[C@H](Cc2ccccc2)CN1)C(=O)NCc1cc(Cl)ccc1-n1cnnn1 [compound 1371, Hydrochloride] ?
Resp: 123.31

Req: Also Cc1nc(N)ccc1CNC(=O)[C@H](C)NC(=O)[C@H]1C[C@H](Cc2ccccc2)CN1 ?
Resp: 132.43

Req: Also C[C@H](NC(=O)[C@H]1C[C@@H](c2ccccc2)CCN1)C(=O)NCc1cc(Cl)ccc1O.Cl [1078_11] ?
Resp: 88.73

Req: Also Cc1nc(N)ccc1CNC(=O)[C@H](C)NC(=O)[C@H]1C[C@@H](Cc2ccccc2)CCN1 ?
Resp: 133.22

Req: Also C[C@H](NC(=O)[C@H](N)CCCc1ccccc1)C(=O)NCc1ccc(C(=N)N)cc1.Cl.Cl [1042_2] ?
Resp: 128.91

Req: Also C[C@H](NC(=O)[C@H](N)C1Cc2ccccc2C1)C(=O)NCc1ccc2c(N)nccc2c1.Cl.Cl [1088_A] ?
Resp: 149.95

Req: Also C[C@H](NC(=O)[C@@H](CCc1ccccc1)NCc1ccc(C(=O)N2CCOCC2)cc1)C(=O)NCc1ccc(C(=N)N)cc1.Cl.Cl ?
Resp: 92.62

Req: Also CC(=O)Nc1ccc(CCNC(CCc2ccccc2)C(=O)NC(C)C(=O)NCc2ccc(C(=N)N)cc2)cc1.Cl.Cl (stereo not drawn) [1345_1] ?
Resp: 126.38

Req: Also Cc1nc(N)ccc1CNC(=O)[C@H](C)NC(=O)[C@H]1C[C@H](Cc2cccc(Cl)c2)CN1.Cl.Cl [1328_4] ?
Resp: 119.12

Req: Also C[C@H](NC(=O)[C@H](N)CCCc1ccccc1)C(=O)NCc1ccc(C(=N)N)cc1.Cl.Cl [1042_1] ?
Resp: 122.15

Req: Also N=C(N)c1ccc(CNC(=O)[C@@H]2CCN2C(=O)[C@H](NCC(=O)O)C2Cc3ccccc3C2)cc1 ?
Resp: 137.67

Req: Also C[C@H](NC(=O)[C@H]1C[C@H](c2ccccc2)CN1)C(=O)NCc1ccc2c(N)nccc2c1 ?
Resp: 121.29

Req: Also C[C@H](NC(=O)[C@H](N)C1Cc2ccccc2C1)C(=O)NCc1ccc2nc(N)[nH]c2c1 ?
Resp: 140.37

Req: Also C[C@H](NC(=O)[C@H]1C[C@@H](c2ccccc2)CN1)C(=O)NCc1ccc2c(N)nccc2c1.Cl.Cl [1089_A] ?
Resp: 122.16

Req: Also N=C(N)c1ccc(CNC(=O)[C@@H]2CCN2C(=O)[C@H]2Cc3ccccc3CN2)cc1 ?
Resp: 135.95

Req: Also CC(NC(=O)C1CC(Cc2ccccc2)CN1)C(=O)NCc1cnc2c(c1)c(Cl)cn2C.Cl.Cl (mixture of isomers) [1450_A] ?
Resp: 125.38

Req: Also C[C@H](NC(=O)[C@H]1C[C@@H](c2ccccc2)CCN1)C(=O)NCc1cc(Cl)ccc1O.Cl [1078_3] ?
Resp: 124.44

Req: Also C[C@H](NC(=O)[C@H]1Cc2c([nH]c3ccccc23)CN1)C(=O)NCc1ccc(C(=N)N)cc1.Cl.Cl [1097_1] ?
Resp: 125.81

Req: Also C[C@H](NC(=O)[C@H]1C[C@@H](c2ccccc2)CCN1)C(=O)NCc1cc(Cl)ccc1O.Cl [1078_8] ?
Resp: 111.09

Req: Also C[C@H](NC(=O)[C@H]1C[C@@H](c2ccccc2)CCN1)C(=O)NCc1cc(Cl)ccc1O.Cl [1078_1] ?
Resp: 103.21

Req: Also C[C@H](NC(=O)[C@H]1C[C@@H](c2ccccc2)CCN1)C(=O)NCc1cc(Cl)ccc1O.Cl [1078_2] ?
Resp: 91.16

Req: Also Cc1nc(N)ccc1CNC(=O)[C@H](C)NC(=O)c1cc(Cc2ccccc2)n[nH]1 ?
Resp: 125.36

Req: Also Cc1nc(N)ccc1CNC(=O)[C@H](C)NC(=O)[C@H]1C[C@H](Cc2ccccc2Br)CN1.O=C(O)C(F)(F)F.O=C(O)C(F)(F)F [1372_A] ?
Resp: 133.23

Req: Also C[C@H](NC(=O)[C@H]1C[C@@H](c2ccccc2)CCN1)C(=O)NCc1cc(Cl)ccc1O.Cl [1078_4] ?
Resp: 93.17

Req: Also C[C@H](NC(=O)[C@H]1C[C@H](Cc2ccccc2)CN1)C(=O)NCc1ccc(C(=N)N)cc1.Cl.Cl [1306_2] ?
Resp: 153.92

Req: Also C[C@H](NC(=O)[C@H]1C[C@H](Cc2ccccc2)CN1)C(=O)NCc1ccc(C(=N)N)cc1.Cl.Cl [1306_1] ?
Resp: 143.05

Req: Also N=C(N)c1ccc(CNC(=O)C(CF)NC(=O)[C@H](N)CCc2ccccc2)cc1 (stereo partly drawn) [compound 1050, Dihydrochloride] ?
Resp: 140.76

Req: Also C[C@H](NC(=O)[C@@H](CCc1ccccc1)NCc1ccc(N2CCOCC2)cc1)C(=O)NCc1ccc(C(=N)N)cc1 ?
Resp: 105.44

Req: Also C[C@H](NC(=O)[C@H]1C[C@@H](c2ccccc2)CCN1)C(=O)NCc1cc(Cl)ccc1O.Cl [1078_14] ?
Resp: 109.80
